Where do these numbers come from? They come from ChEMBL document CHEMBL5512623.

Assay: Tmax in male Sprague-Dawley rat at 25 mg/kg, po measured upto 24 hrs by LC-MS/MS analysis
Assay type: ADME, organism-based
Conditions: in vivo
parameterMeasured: Tmax (min)
The reply should be a number in min, with the unit left off.

Complete the entry with Tmax for `CC(C)(C(=O)O)c1cccc(CCCN2CCC(=C3c4ccc(Cl)cc4CCc4cccnc43)CC2)c1`
22.8

====

Experiment: Plasma protein binding in rat assessed as binding rate at 250 ng/ml prewarmed for 30 mins by LC-MS/MS analysis
Format: ADME, cell-free
Details: read-out: PPB (converted)
parameterMeasured: fraction unbound at 0.5 h, 250 ng/ml
Write no unit; give the number alone.

Consider the molecule `CC(C)(C(=O)O)c1cccc(CCCN2CCC(=C3c4ccc(Cl)cc4CCc4cccnc43)CC2)c1` . State its measured fraction unbound at 0.5 h, 250 ng/ml.
0.346

====

Assay: Ratio of Cmax in female Sprague-Dawley rat brain to plasma at 10 mg/kg, IG administered as single dose
Format: ADME, organism-based
Details: brain and plasma, po, read-out: BPR
parameterMeasured: Kp
Reply with the value as a number alone.

Answer with the recorded Kp of `CC(C)(C(=O)O)c1cccc(CCCN2CCC(=C3c4ccc(Cl)cc4CCc4cccnc43)CC2)c1` only.
0.066

====

Assay: AUC (0 to infinity) in male Sprague-Dawley rat at 25 mg/kg, po measured upto 24 hrs by LC-MS/MS analysis
Format: ADME, organism-based
Conditions: in vivo
parameterMeasured: AUC(0-inf)
Note: a bare number is incomplete; add the unit.

Read the entry `CC(C)(C(=O)O)c1cccc(CCCN2CCC(=C3c4ccc(Cl)cc4CCc4cccnc43)CC2)c1` and write its reported AUC(0-inf).
7210 ng·h/mL

====

Assay: Half life in male Sprague-Dawley rat at 4 mg/kg, iv administered via tail vein and measured upto 24 hrs by LC-MS/MS analysis
Format: ADME, organism-based
Details: in vivo
parameterMeasured: half-life
Reply with a number, then the unit it belongs to.

Answer with reported half-life of `CC(C)(C(=O)O)c1cccc(CCCN2CCC(=C3c4ccc(Cl)cc4CCc4cccnc43)CC2)c1`
39.2 min

====

Test: Cmax in male Sprague-Dawley rat at 25 mg/kg, po measured upto 24 hrs by LC-MS/MS analysis
Type: ADME, organism-based
Conditions: in vivo
parameterMeasured: Cmax (ng/mL)
Please reply with the bare figure in ng/mL and do not write the unit itself.

Specify Cmax for `CC(C)(C(=O)O)c1cccc(CCCN2CCC(=C3c4ccc(Cl)cc4CCc4cccnc43)CC2)c1` and stop.
1720

====

The following compounds are shown together with reported IC50 values.
Molecular target: Voltage-gated inwardly rectifying potassium channel KCNH2 (Homo sapiens, UniProt Q12809)
Sequence (Q12809 whole entry): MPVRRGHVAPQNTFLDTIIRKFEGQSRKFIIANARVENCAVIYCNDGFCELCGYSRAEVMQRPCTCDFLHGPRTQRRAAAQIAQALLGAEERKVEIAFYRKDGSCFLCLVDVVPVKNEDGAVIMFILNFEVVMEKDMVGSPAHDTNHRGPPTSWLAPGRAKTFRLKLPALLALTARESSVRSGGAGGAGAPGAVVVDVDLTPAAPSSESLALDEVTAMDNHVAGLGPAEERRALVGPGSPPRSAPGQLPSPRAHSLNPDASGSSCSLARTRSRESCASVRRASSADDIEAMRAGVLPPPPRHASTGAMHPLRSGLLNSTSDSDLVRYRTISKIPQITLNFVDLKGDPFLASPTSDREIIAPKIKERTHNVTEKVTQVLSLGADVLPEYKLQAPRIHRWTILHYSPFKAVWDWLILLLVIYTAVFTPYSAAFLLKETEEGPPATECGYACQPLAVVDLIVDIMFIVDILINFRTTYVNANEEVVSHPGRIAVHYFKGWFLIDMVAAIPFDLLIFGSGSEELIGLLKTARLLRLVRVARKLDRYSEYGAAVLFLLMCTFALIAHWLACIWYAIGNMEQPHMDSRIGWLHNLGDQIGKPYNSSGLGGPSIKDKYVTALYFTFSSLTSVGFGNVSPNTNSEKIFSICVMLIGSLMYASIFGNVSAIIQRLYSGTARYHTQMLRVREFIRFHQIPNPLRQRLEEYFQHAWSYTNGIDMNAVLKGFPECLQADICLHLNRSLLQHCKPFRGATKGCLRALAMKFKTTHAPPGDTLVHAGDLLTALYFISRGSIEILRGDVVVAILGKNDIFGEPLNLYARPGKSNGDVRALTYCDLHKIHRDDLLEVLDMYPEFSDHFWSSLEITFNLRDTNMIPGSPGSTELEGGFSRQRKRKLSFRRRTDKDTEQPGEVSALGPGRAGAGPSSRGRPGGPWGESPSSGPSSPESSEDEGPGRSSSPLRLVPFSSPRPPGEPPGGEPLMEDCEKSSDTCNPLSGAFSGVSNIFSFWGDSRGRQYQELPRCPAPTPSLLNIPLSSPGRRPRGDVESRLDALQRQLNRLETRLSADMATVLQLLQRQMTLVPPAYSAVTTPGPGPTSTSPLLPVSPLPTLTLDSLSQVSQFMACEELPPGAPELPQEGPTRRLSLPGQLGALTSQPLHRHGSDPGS
Assay: Inhibition of hERG in HEK293 cells measured after 5 mins by patch-clamp assay
Note: unit µM is implicit; provide only the numeric part.

Record excerpt, results attached:
Give IC50 for `NC(=O)c1cn(CCN2CCC(=C3c4ccc(Cl)cc4CCc4cccnc43)CC2)nn1` tested on Voltage-gated inwardly rectifying potassium channel KCNH2 (Homo sapiens, UniProt Q12809).
6.36

Quote IC50 with test system Voltage-gated inwardly rectifying potassium channel KCNH2 (Homo sapiens, UniProt Q12809) for `OC[C@H](O)CN1CCC(=C2c3ccc(Cl)cc3CCc3cccnc32)CC1`
2.64

Give reported IC50 for `CC(C)(C(=O)O)c1cccc(CCCN2CCC(=C3c4ccc(Cl)cc4CCc4cccnc43)CC2)c1` (Voltage-gated inwardly rectifying potassium channel KCNH2 (Homo sapiens, UniProt Q12809))
17.6

More entries:
Give IC50 only, for `CC(C)(C(=O)O)c1ccc(CN2CCC(=C3c4ccc(Cl)cc4CCc4cccnc43)CC2)cc1` , using Voltage-gated inwardly rectifying potassium channel KCNH2 (Homo sapiens, UniProt Q12809) data.
18.4

Identify measured IC50 obtained with Voltage-gated inwardly rectifying potassium channel KCNH2 (Homo sapiens, UniProt Q12809) for `CC(C)(C(=O)O)c1ccc(CCCN2CCC(=C3c4ccc(Cl)cc4CCc4cccnc43)CC2)c(F)c1` .
30.1

====

Assay: MRT (0 to infinity) in male Sprague-Dawley rat at 25 mg/kg, po measured upto 24 hrs by LC-MS/MS analysis
Assay type: ADME, organism-based
Conditions: in vivo
parameterMeasured: MRT inf (h)
The reply should contain only the number, in h.

Supply measured MRT inf of `CC(C)(C(=O)O)c1cccc(CCCN2CCC(=C3c4ccc(Cl)cc4CCc4cccnc43)CC2)c1` in your reply.
6.01

====

Test: Ratio of Cmax in male Sprague-Dawley rat brain to plasma at 10 mg/kg, IG administered as single dose
Format: ADME, organism-based
Details: brain and plasma, po, read-out: BPR
parameterMeasured: Kp
Output: the number by itself.

Input `CC(C)(C(=O)O)c1cccc(CCCN2CCC(=C3c4ccc(Cl)cc4CCc4cccnc43)CC2)c1` , output reported Kp.
0.066

====

Assay: Plasma protein binding in human assessed as binding rate at 500 ng/ml prewarmed for 30 mins by LC-MS/MS analysis
Type: ADME, cell-free
Conditions: read-out: PPB (converted)
parameterMeasured: fraction unbound at 0.5 h, 500 ng/ml
Give the figure by itself; no unit, no explanation.

Look up and report measured fraction unbound at 0.5 h, 500 ng/ml for this entry: `CC(C)(C(=O)O)c1cccc(CCCN2CCC(=C3c4ccc(Cl)cc4CCc4cccnc43)CC2)c1`
0.321

====

Test: Apparent permeability across apical to basolateral side in human Caco-2 cells at 5 uM measured at 60 mins
Format: ADME, cell-based
parameterMeasured: Papp A→B at 1 h, 5 µM (×10⁻⁶ cm/s)
Answer in ×10⁻⁶ cm/s, number only, no unit symbol.

State its Papp A→B at 1 h, 5 µM: CC(C)NCC(O)COc1cccc2ccccc12 (configuration not stated)
34.8

Please examine the following record next.
Please report the measured Papp A→B at 1 h, 5 µM for `CC(C)(C(=O)O)c1cccc(CCCN2CCC(=C3c4ccc(Cl)cc4CCc4cccnc43)CC2)c1`
5.82

====

Test: Apparent permeability across basolateral to apical side in human Caco-2 cells at 5 uM measured at 60 mins
Format: ADME, cell-based
Below, each entry is listed with its recorded Papp B→A at 1 h, 5 µM.
// units = ×10⁻⁶ cm/s; emit number, no label

Give reported Papp B→A at 1 h, 5 µM value for CC(C)NCC(O)COc1cccc2ccccc12 (configuration not stated)
20.5

Others:
Answer with reported Papp B→A at 1 h, 5 µM of `CC(C)(C(=O)O)c1cccc(CCCN2CCC(=C3c4ccc(Cl)cc4CCc4cccnc43)CC2)c1`
6.06

====

Experiment: Volume of distribution in male Sprague-Dawley rat at 4 mg/kg, iv administered via tail vein and measured upto 24 hrs by LC-MS/MS analysis
Type: ADME, organism-based
Details: in vivo
parameterMeasured: Vd (L/kg)
Use L/kg as the unit, but write only the number.

Identify Vd associated with the molecule `CC(C)(C(=O)O)c1cccc(CCCN2CCC(=C3c4ccc(Cl)cc4CCc4cccnc43)CC2)c1`
1.77

====

Quick list: pIC50 per entry.
Biological target: Histamine H1 receptor (Homo sapiens)
Sequence (P35367 whole entry): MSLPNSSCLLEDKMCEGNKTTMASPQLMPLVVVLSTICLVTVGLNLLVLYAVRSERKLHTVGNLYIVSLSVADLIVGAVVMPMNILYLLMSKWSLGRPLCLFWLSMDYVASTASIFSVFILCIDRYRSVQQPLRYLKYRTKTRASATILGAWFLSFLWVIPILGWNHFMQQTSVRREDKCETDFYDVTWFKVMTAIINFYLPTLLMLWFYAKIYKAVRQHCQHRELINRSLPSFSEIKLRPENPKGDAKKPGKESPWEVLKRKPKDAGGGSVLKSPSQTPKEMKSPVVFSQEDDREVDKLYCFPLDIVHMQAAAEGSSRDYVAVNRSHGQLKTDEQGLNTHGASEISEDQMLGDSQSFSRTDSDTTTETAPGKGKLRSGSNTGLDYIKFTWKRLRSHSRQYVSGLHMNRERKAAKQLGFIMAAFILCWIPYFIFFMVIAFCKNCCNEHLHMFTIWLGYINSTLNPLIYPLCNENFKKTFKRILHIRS
Assay: Antagonist activity at human H1 receptor expressed in PathHunter CHO-K1 HRH1 beta-arrestin cells preincubated for 30 mins followed by agonist addition at 6 times EC80 and measured after 90 to 180 mins by PathHunter assay
Quick note: pIC50 means taking -log10 of the concentration in moles per liter.

Using the record for O=C(O)CC(O)CN1CCC(=C2c3ccc(Cl)cc3CCc3cccnc32)CC1 (configuration not stated) , state its measured pIC50.
6.90

Please look at the following compound next.
Give reported pIC50 value for CC(C)(C(=O)O)c1cccc(CC(O)CN2CCC(=C3c4ccc(Cl)cc4CCc4cccnc43)CC2)c1 (configuration not stated)
7.24

====

Assay: Oral bioavailability in male Sprague-Dawley rat at 25 mg/kg measured upto 24 hrs by LC-MS/MS analysis
Format: ADME, organism-based
Details: in vivo
parameterMeasured: bioavailability (%)
Give the value in % but do not write % after it.

Could you please provide reported bioavailability for `CC(C)(C(=O)O)c1cccc(CCCN2CCC(=C3c4ccc(Cl)cc4CCc4cccnc43)CC2)c1` ? Thanks!
59.5

====

Test: Cmax in female Sprague-Dawley rat brain at 10 mg/kg, IG administered as single dose
Assay type: ADME, organism-based
Details: po
parameterMeasured: Cmax
In your response, put the unit directly after the numeric value.

Write down Cmax measured for item `Clc1ccc2c(c1)CCc1cccnc1C2=C1CCNCC1`
1180 ng/g

Next:
Indicate its recorded Cmax; the compound in question is `CC(C)(C(=O)O)c1cccc(CCCN2CCC(=C3c4ccc(Cl)cc4CCc4cccnc43)CC2)c1`
126 ng/g

====

Overview of recorded IC50 for various compounds
Target: Voltage-gated inwardly rectifying potassium channel KCNH2 (Homo sapiens, UniProt Q12809)
Test: Inhibition of hERG in HEK293 cells measured after 5 mins by patch-clamp assay

Please supply the value of reported IC50 for the item O=C(O)CC(O)CN1CCC(=C2c3ccc(Cl)cc3CCc3cccnc32)CC1 (stereo not drawn)
> 30 µM

Supply IC50 value. Item: `CC(C)(C(=O)O)c1ccc(CCCN2CCC(=C3c4ccc(Cl)cc4CCc4cccnc43)CC2)cc1`
> 30 µM

Provide measured IC50 value, entry: `CC(C)(C(=O)O)c1ccc(CCN2CCC(=C3c4ccc(Cl)cc4CCc4cccnc43)CC2)cc1`
> 30 µM
